From: patent EP4725969A1

# ASSAYED SYSTEM: T1, recombinant human HER2 extracellular domain protein (human, UniProt P04626 23-652)
# T1 construct: range 23-652; Range is printed for the immunogen/panning protein; also called ErbB2; recombinant HER2 protein
# PROTOCOL SUMMARY: BLI, Protein A capture
Documented koff across a set of binders

>  <BINDER>
Hu2117HK-Mu07 (Fc fusion, name in Kabat numbering, scFv-hIgG1 Fc; not shown: human IgG1 Fc) scFv: EVQLVESGGGLVQPGGSLRLSCAASGFTYSSYGMSWVRQAPGKGLEWVASISGGGSYTYYPDSVKGRFTISRDNSKNTLYLQMNSLRAEDTAVYYCARDYAGFFDVWGQGTLVTVSSGGGGSGGGGSGGGGSDIQMTQSPSSLSASVGDRVTITCRSSQSLVHSNGNTYLHWYQQKPGKAPKLLIYKVSNRFSGVPSRFSGSGSGTDFTLTISSLQPEDFATYFCSQSTHVPYTFGQGTKVEIK

>  <SCALE UNIT>
s⁻¹

>  <koff>
0.000465

$$$$
>  <BINDER>
Hu2117HK-Mu45 (Fc fusion, scFv-hIgG1 Fc; not shown: human IgG1 Fc) scFv: EVQLVESGGGLVQPGGSLRLSCAASGFTYSSYGMSWVRQAPGKGLEWVASISGGGSYTKYPDSVKGRFTISRDNSKNTLYLQMNSLRAEDTAVYYCARDYIGFFDVWGQGTLVTVSSGGGGSGGGGSGGGGSDIQMTQSPSSLSASVGDRVTITCRSSQSLVHSNGNTYLHWYQQKPGKAPKLLIYKVSNRFSGVPSRFSGSGSGTDFTLTISSLQPEDFATYFCSQSTHVPYTFGQGTKVEIK

>  <SCALE UNIT>
s⁻¹

>  <koff>
0.00126

$$$$
>  <BINDER>
Hu2117HK-Mu20 (Fc fusion, name in Kabat numbering, scFv-hIgG1 Fc; not shown: human IgG1 Fc) scFv: EVQLVESGGGLVQPGGSLRLSCAASGFTYSSYGMSWVRQAPGKGLEWVASISGGGSYTKYPDSVKGRFTISRDNSKNTLYLQMNSLRAEDTAVYYCARDYAGFFDVWGQGTLVTVSSGGGGSGGGGSGGGGSDIQMTQSPSSLSASVGDRVTITCRSSQSLVHSSGNTYLHWYQQKPGKAPKLLIYKVSNRFSGVPSRFSGSGSGTDFTLTISSLQPEDFATYFCSQSTHVPYTFGQGTKVEIK

>  <SCALE UNIT>
s⁻¹

>  <koff>
0.000616

$$$$
